Data origin: patent US20130344139A1

- experimental target: human muscarinic receptor M2 (Homo sapiens)
- Sequence (P08172 1-466): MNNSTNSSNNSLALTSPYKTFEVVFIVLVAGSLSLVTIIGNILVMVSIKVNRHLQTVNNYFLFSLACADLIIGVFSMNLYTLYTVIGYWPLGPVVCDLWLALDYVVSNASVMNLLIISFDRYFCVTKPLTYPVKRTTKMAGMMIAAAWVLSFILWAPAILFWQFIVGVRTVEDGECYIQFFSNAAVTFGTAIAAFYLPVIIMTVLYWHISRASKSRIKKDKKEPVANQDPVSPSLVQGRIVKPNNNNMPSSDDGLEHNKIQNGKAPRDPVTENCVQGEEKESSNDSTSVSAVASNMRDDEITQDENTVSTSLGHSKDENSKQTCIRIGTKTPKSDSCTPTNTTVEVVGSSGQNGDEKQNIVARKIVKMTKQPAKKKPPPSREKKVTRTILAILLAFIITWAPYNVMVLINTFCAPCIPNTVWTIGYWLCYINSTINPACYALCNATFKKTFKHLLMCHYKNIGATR
- assay comment: Muscarinic receptor potency, C6 cells expressing recombinant M2 (chimeric Gq/i)
readout: pIC50
Convention used: pIC50 is expressed as -log10 of the molar concentration.

CN(C)CC/C=C1/c2ccccc2COc2ccc(CC(=O)O)cc21 [olopatadine] :: 5.12

Kindly consider the entry below.
Data request: Data request, read-out pIC50, for CN1CCC(=C2c3ccccc3CC(=O)c3sccc32)CC1 [ketotifen]
Data returned: 6.68
